Test: Pharmacokinetic study: Birinapant in plasma and liver after i.v. Birinapant or I-5-S in rats
Conditions: rat, in vivo, iv, 5 mg/kg, liver; Birinapant measured after i.v. Birinapant 5 mg/kg, rats
REPORTED_ENDPOINT: half-life (h)
Entry rule: numbers only, all in h.

Provide one value: measured half-life of CC[C@H](NC(=O)[C@H](C)NC)C(=O)N1C[C@@H](O)C[C@H]1Cc1c(-c2[nH]c3cc(F)ccc3c2C[C@@H]2C[C@H](O)CN2C(=O)[C@H](CC)NC(=O)[C@H](C)NC)[nH]c2cc(F)ccc12 [Birinapant]
22.9

* * *

Assay: Pharmacokinetic study: Birinapant in plasma and liver after i.v. Birinapant or I-5-S in rats
Settings: rat, in vivo, iv, 5 mg/kg
REPORTED_ENDPOINT: clearance (mL/min/kg)
Give the quantity in mL/min/kg, number only.

Give a short answer stating reported clearance for CC[C@H](NC(=O)[C@H](C)NC)C(=O)N1C[C@@H](O)C[C@H]1Cc1c(-c2[nH]c3cc(F)ccc3c2C[C@@H]2C[C@H](O)CN2C(=O)[C@H](CC)NC(=O)[C@H](C)NC)[nH]c2cc(F)ccc12 [Birinapant] .
76.3

* * *

Test: Pharmacokinetic study: Birinapant in plasma and liver after i.v. Birinapant or I-5-S in rats
Settings: rat, in vivo, iv, 5 mg/kg, AUC0-24
REPORTED_ENDPOINT: AUC(0-t) (ng·h/mL)
Respond numerically; units are ng·h/mL and should not be typed.

Return value of AUC(0-t) for input CC[C@H](NC(=O)[C@H](C)NC)C(=O)N1C[C@@H](O)C[C@H]1Cc1c(-c2[nH]c3cc(F)ccc3c2C[C@@H]2C[C@H](O)CN2C(=O)[C@H](CC)NC(=O)[C@H](C)NC)[nH]c2cc(F)ccc12 , no commentary.
967

* * *

Assay: Pharmacokinetic study: Birinapant in plasma and liver after i.v. Birinapant or I-5-S in rats
Settings: rat, in vivo, iv, 5 mg/kg
REPORTED_ENDPOINT: C0 (ng/mL)
Give the number; ng/mL is assumed, so skip it.

Provide only the value of recorded C0 for CC[C@H](NC(=O)[C@H](C)NC)C(=O)N1C[C@@H](O)C[C@H]1Cc1c(-c2[nH]c3cc(F)ccc3c2C[C@@H]2C[C@H](O)CN2C(=O)[C@H](CC)NC(=O)[C@H](C)NC)[nH]c2cc(F)ccc12
3470

* * *

Experiment: Pharmacokinetic study: Birinapant in plasma and liver after i.v. Birinapant or I-5-S in rats
Conditions: rat, in vivo, iv, 5 mg/kg
Procedure: 1. Formulation of preparation and dosing: An appropriate amount of the test sample was precisely weighed, and mixed with an appropriate volume of a solvent (5% DMSO/5% Solutol/90% water) to obtain a clear solution or a homogeneous suspension. […] The dosage volume would be determined by the body weights of the animals collected on the morning of administering. […] After homogenization, a portion of liver tissue homogenate (e.g., 200 μL of homogenate) was immediately measured. […]
REPORTED_ENDPOINT: Vd (L/kg)
The response must be a number in L/kg with no trailing unit.

Please list Vd recorded for the molecule CC[C@H](NC(=O)[C@H](C)NC)C(=O)N1C[C@@H](O)C[C@H]1Cc1c(-c2[nH]c3cc(F)ccc3c2C[C@@H]2C[C@H](O)CN2C(=O)[C@H](CC)NC(=O)[C@H](C)NC)[nH]c2cc(F)ccc12 [Birinapant]
36.3

* * *

Test: Pharmacokinetic study: Birinapant in plasma and liver after i.v. Birinapant or I-5-S in rats
Conditions: rat, in vivo, iv, 5 mg/kg
REPORTED_ENDPOINT: AUC(0-inf) (ng·h/mL)
API: value field is a number in ng·h/mL; no unit string.

Provide AUC(0-inf) value for the following molecule: CC[C@H](NC(=O)[C@H](C)NC)C(=O)N1C[C@@H](O)C[C@H]1Cc1c(-c2[nH]c3cc(F)ccc3c2C[C@@H]2C[C@H](O)CN2C(=O)[C@H](CC)NC(=O)[C@H](C)NC)[nH]c2cc(F)ccc12
1090

* * *

Assay: Pharmacokinetic study: Birinapant in plasma and liver after i.v. Birinapant or I-5-S in rats
Conditions: rat, in vivo, iv, 5 mg/kg
REPORTED_ENDPOINT: Tmax (min)
Field format: number, assumed min, no unit text.

State, in one line, measured Tmax of CC[C@H](NC(=O)[C@H](C)NC)C(=O)N1C[C@@H](O)C[C@H]1Cc1c(-c2[nH]c3cc(F)ccc3c2C[C@@H]2C[C@H](O)CN2C(=O)[C@H](CC)NC(=O)[C@H](C)NC)[nH]c2cc(F)ccc12
15

* * *

Experiment: Pharmacokinetic study: Birinapant in plasma and liver after i.v. Birinapant or I-5-S in rats
Conditions: rat, in vivo, iv
REPORTED_ENDPOINT: C0 (ng/mL)
Kindly answer with a numeric value in ng/mL, unit omitted.

Tell me its C0 given CC[C@H](NC(=O)[C@H](C)NC)C(=O)N1C[C@@H](O)C[C@H]1Cc1c(-c2[nH]c3cc(F)ccc3c2C[C@@H]2C[C@H](O)CN2C(=O)[C@H](CC)NC(=O)[C@H](C)NC)[nH]c2cc(F)ccc12 [Birinapant] as the entry.
3470

* * *

Assay: Pharmacokinetic study: Birinapant in plasma and liver after i.v. Birinapant or I-5-S in rats
Settings: rat, in vivo, iv, 5 mg/kg, plasma; Birinapant measured after i.v. Birinapant 5 mg/kg, rats
REPORTED_ENDPOINT: half-life (h)
Lab book: enter the figure in h, no units written.

Item CC[C@H](NC(=O)[C@H](C)NC)C(=O)N1C[C@@H](O)C[C@H]1Cc1c(-c2[nH]c3cc(F)ccc3c2C[C@@H]2C[C@H](O)CN2C(=O)[C@H](CC)NC(=O)[C@H](C)NC)[nH]c2cc(F)ccc12 [Birinapant] : provide half-life
14.6
